Data provenance: patent US12006314B2

- MEASURED_ON: ER Alpha-ligand binding domain (LBD) (Homo sapiens, UniProt P03372)
- Sequence (P03372 311-547 limits assumed): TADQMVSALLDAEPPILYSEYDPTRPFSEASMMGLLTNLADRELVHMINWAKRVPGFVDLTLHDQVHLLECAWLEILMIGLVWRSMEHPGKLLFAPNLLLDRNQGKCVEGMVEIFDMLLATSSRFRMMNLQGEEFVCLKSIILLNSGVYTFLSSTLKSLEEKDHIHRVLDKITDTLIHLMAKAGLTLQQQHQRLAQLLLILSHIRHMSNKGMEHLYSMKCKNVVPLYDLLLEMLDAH
- ASSAY_EXPLANATION: ER binding assay (LanthaScreen TR-FRET ER Alpha Competitive Binding)
- MEASUREMENT_PARAMETERS: Fluormone ES2 Green tracer 3 nM, 2 h
REPORTED_ENDPOINT: IC50

* CCc1cc2ncc(CN3CCN(C(=O)CCCCCOc4cc(F)c([C@@H]5c6[nH]c7ccccc7c6C[C@@H](C)N5CC(C)(C)F)c(F)c4)CC3)cc2[nH]c1=O | ≤ 100 nM
